# credit: patent US20090069319A1

Entries and their fold induction at 2 µM
Experiment: Functional Dkk1-LRP5-TCF-Luciferase Assay in U2OS Cells (table columns: A=MAX FOLD Induction/DMSO CONTROL; B=fold induction @ 2.0 uM; C=fold induction @ 20.0 uM)
Type: cell-based, Human
Conditions: Homo sapiens, U2OS; 2.0 uM compound
Description: Biological Evaluation—Functional Dkk1-LRP5-TCF-Luciferase Assay in U2OS Cells U2OS Human Bone derived cells (Osteosarcoma) are grown in McCoy's 5A Medium (Modified), with L-glutamine (GIBCO Cat No. 16600-082)+1% Pen-Strep+5% FBS) plated at 1×10^7 cells/T175 cm flask. […] After a minimum of 4 hr of transfection at 37° C., the plasmid-transfected cells are trypsinized, counted, and suspended in freezing medium (95% FBS+5% DMSO). […]

Please review the following examples before continuing.
Smiles text: c1csc(-c2nc3c(-c4ccc5ccccc5c4)ccnc3n2C2CCNCC2)c1
Result: 1.22
//
Smiles text: COc1ncccc1-c1nc2c(-c3ccc4ccccc4c3)ccnc2n1C1CCNCC1
Result: 1.5
//
Smiles text: c1ccc2cc(-c3ccnc4c3ncn4[C@H]3CCNC3)ccc2c1
Result: 2.1

Input line: Reported fold induction at 2 µM for "Cc1nc2cc(-c3ccc4ccccc4c3)cnc2n1C1CCNCC1" : what is it?
Output line: 1.06

Input line: Also check "Fc1ccc(-c2nc3c(-c4ccc5ccccc5c4)ccnc3n2C2CCNCC2)c(F)c1"
Output line: 1.42

Input line: Another compound to check: "c1ccc(-c2nc3cc(-c4ccc5ccccc5c4)cnc3n2C2CCNCC2)nc1"
Output line: 1.6

Input line: Next compound up: "CC(C)NC(=O)N1CCC(n2c(=O)n(C)c3c(-c4ccc5ccccc5c4)ccnc32)CC1"
Output line: 1.07

Input line: Do the same for "Cc1nc2c(-c3ccc4ccccc4c3)ccnc2n1[C@H]1CCCNC1" please
Output line: 2.12
